Values were extracted from PubChem BioAssay (NCATS).

- Assay details: BET inhibitor-based combinations targeting novel dependencies in MECOM-rearranged (r) AML: AML-194 cell line (AID 2202237; also: nearly all actives have a fitted effect of over 40% in size)
- Condition label: AML-194 (MECOM-r AML) viability, CellTiter-Glo, 48 h; series mostly up to 46 µM
Inconclusive results are not listed. Active and inactive are the calls of the source. Calls follow the shape of the dose curve; as a rule, active = well fitted inhibition curve with a large enough effect; inconclusive = small, poorly fitted or top-dose-only effect; inactive = flat fitted curve, though single readings scatter.
Respond using exactly one of the listed classes: active, inactive

As a guide, the following entries are already answered.
CO[C@@]12[C@H](COC(N)=O)C3=C(C(=O)C(C)=C(N)C3=O)N1C[C@@H]1N[C@@H]12 ... inactive
C=C1C(=O)O[C@@H]2[C@H]3C(C)=CC[C@@]34O[C@@]4(C)CC[C@@H]12 ... active
O=C(/C=C\n1cnc(-c2cc(C(F)(F)F)cc(C(F)(F)F)c2)n1)NNc1ccccn1 ... active

Recorded test call requested for "CCCCCCCOc1ccc(CCC(N)(CO)CO)cc1C(F)(F)F" active

Dear colleague, could you share the recorded outcome for "CC1(C)O[C@@H]2C[C@H]3[C@@H]4C[C@H](F)C5=CC(=O)C=C[C@]5(C)[C@@]4(F)[C@@H](O)C[C@]3(C)[C@]2(C(=O)CO)O1" when you have a moment? inactive

Just curious, what result did "Cc1cc(C)c(S(=O)(=O)N(CCc2cccc(Br)c2)Cc2ccc(-c3cccc(S(C)(=O)=O)c3)cc2)c(C)c1" get here? inactive

Which result was noted for this compound in the test: "C=CC(=O)Nc1cccc(Oc2nc(Nc3ccc(N4CCN(C)CC4)c(F)c3)nc3[nH]ccc23)c1" active

Kindly provide the recorded test outcome for the following compound: "O=C(O)/C(S)=C/c1ccc(I)cc1" inactive

Which outcome did this test record for the compound "O=C(O)CCNc1cc(N2CCc3ccccc3CC2)nc(-c2cccnc2)n1" ? inactive

Which outcome did this test record for the compound CC(C)(C)C[C@H]1N[C@@H](C(=O)NC2CCC(O)CC2)[C@H](c2cccc(Cl)c2F)[C@@]12C(=O)Nc1cc(Cl)ccc12 (some centres not stated) ? active

---

- Assay details: BET inhibitor-based combinations targeting novel dependencies in MECOM-rearranged (r) AML: AML-191 cell line (AID 2202236; also: nearly all actives have a fitted effect of over 35% in size)
- Condition label: AML-191 viability, CellTiter-Glo luminescence, 48 h; series mostly up to 46 µM
Inconclusive results are not listed. Activity calls are given as the source filed them. Calls come from the whole dose curve; as a rule, active = well fitted inhibition curve with a large enough effect; inconclusive = small, poorly fitted or top-dose-only effect; inactive = flat fitted curve, though single readings scatter.
Write down the outcome that applies. Available outcomes: active, inactive

Example entries and their recorded answers appear below.
Cn1ncc(Cl)c1-c1cc(C(=O)N[C@H](CN)Cc2ccc(F)c(F)c2)sc1Cl ... active
NC(=O)c1nc(F)c[nH]c1=O ... inactive
O=C1CC(c2c[nH]c3ccc(F)cc23)C(=O)N1 (centres undefined) ... inactive
O=C(NC1CC1)c1cccc(-c2ccc3c(NC(=O)C4CC4)n[nH]c3c2)c1 ... active
COc1cc([C@@H]2c3cc4c(cc3[C@@H](O[C@@H]3O[C@@H]5CO[C@@H](c6cccs6)O[C@H]5[C@H](O)[C@H]3O)[C@H]3COC(=O)[C@H]23)OCO4)cc(OC)c1O ... active

Per the assay record, what outcome was assigned to "CCCCCCCCCCCCCCCCCCCCCCO" ? inactive

Tell me the assay call for C=C1/C(=C/C=C2\CCCC3(C)[C@@H]([C@H](C)/C=C/C=C/C(O)(CC)CC)CC[C@@H]23)C[C@@H](O)C[C@@H]1O (some centres undefined) please. active

Which outcome was entered for the compound "COc1cc(OC)c(NC(=O)Nc2cc(C)on2)cc1Cl" in this test? inactive

Fill in: this test's call for "CO[C@H]1O[C@@H]2O[C@@]3(C)CC[C@H]4[C@H](C)CC[C@@H]([C@H]1C)[C@@]24OO3" is ___ active
